Taken from patent US20140112915A1.

Target: T1, Recombinant human IL-18 (human, UniProt Q14116 37-193)
T1 sequence: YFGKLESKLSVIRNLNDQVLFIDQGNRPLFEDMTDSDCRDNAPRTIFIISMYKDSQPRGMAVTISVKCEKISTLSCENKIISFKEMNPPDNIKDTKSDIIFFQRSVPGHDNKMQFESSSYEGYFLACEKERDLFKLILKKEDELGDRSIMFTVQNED
Experiment: cell-based or functional assay
Consider the following binders and their measured IC50, inhibition of IFN-γ release, PBMC, Hu IL-18 (recombinant) readings.
Answer shape: numeric part, then the unit.

Worked set:
| binder | recorded-measurement |
| --- | --- |
| MOR09441 (antibody, human IgG1, lambda, L234A L235A, V domains shown, also called MOR9441) VH: EVQLVQSGAEVKKPGSSVKVSCKASGGTFNSYAISWVRQAPGQGLEWMGWINPFYIGETFYAQKFQGRVTITADESTSTAYMELSSLRSEDTAVYYCARAAYHPLVFDNWGQGTLVTVSS VL: DIVLTQPPSVSGAPGQRVTISCSGSSSNIGNHYVNWYQQLPGTAPKLLIYRNNHRPSGVPDRFSGSKSGTSASLAITGLQSEDEADYYCQSWDYSGFSTVFGGGTKLTVLG | 2.5 nM |
| MOR09465 (antibody, human IgG1, lambda, L234A L235A, V domains shown, also called MOR9465) VH: EVQLVQSGAEVKKPGSSVKVSCKASGGTFNSYAISWVRQAPGQGLEWMGNIIPHYGFAYYAQKFQGRVTITADESTSTAYMELSSLRSEDTAVYYCARAAYHPLVFDNWGQGTLVTVSS VL: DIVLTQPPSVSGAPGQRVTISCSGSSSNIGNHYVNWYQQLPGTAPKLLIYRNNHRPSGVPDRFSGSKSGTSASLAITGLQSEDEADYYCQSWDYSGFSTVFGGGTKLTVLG | 0.6 nM |

Inquiry: Which IC50, inhibition of IFN-γ release, PBMC, Hu IL-18 (recombinant) reading was recorded for the binder MOR10579 (antibody, human IgG1, lambda, L234A L235A, V domains shown) VH: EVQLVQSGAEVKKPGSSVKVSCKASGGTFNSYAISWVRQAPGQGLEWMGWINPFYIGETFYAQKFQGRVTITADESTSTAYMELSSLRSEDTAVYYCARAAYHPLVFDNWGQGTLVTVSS VL: QSVLTQPPSASGTPGQRVTISCSGSSSNIGNHYVNWYQQLPGTAPKLLIYRNNHRPSGVPDRFSGSKSGTSASLAISGLQSEDEADYYCQSWDYSGFSTVFGGGTKLTVLG ?
Reply text: 1.9 nM

Inquiry: Which IC50, inhibition of IFN-γ release, PBMC, Hu IL-18 (recombinant) reading was recorded for the binder MOR10501 (antibody, human IgG1, lambda, L234A L235A, V domains shown, also called MOR010501) VH: EVQLQESGPGLVKPGETLSLTCTVSGGSISTGSYYWNWIRQAPGKGLEWIGEIWHSGPTFYNPSLKSRVTISVDTSKNQFSLKLSSVTAADTAVYYCARTTRYWMSHILAYGMDYWGQGTLVTVSS VL: DIVLTQPPSVSGAPGQRVTISCSGSSSNIGNHYVSWYQQLPGTAPKLLIYANTKRPSGVPDRFSGSKSGTSASLAITGLQSEDEADYYCSSYDGSQSIVFGGGTKLTVLG ?
Reply text: 6.3 nM

Inquiry: Which IC50, inhibition of IFN-γ release, PBMC, Hu IL-18 (recombinant) reading was recorded for the binder Recombinant human IL-18 Binding Protein-IgG1 Fc (Fc fusion, UniProt O95998 31-194, looked up, not shown: a dimerising Fc or GST) TPVSQTTTAATASVRSTKDPCPSQPPVFPAAKQCPALEVTWPEVEVPLNGTLSLSCVACSRFPNFSILYWLGNGSFIEHLPGRLWEGSTSRERGSTGTQLCKALVLEQLTPALHSTNFSCVLVDPEQVVQRHVVLAQLWAGLRATLPPTQEALPSSHSSPQQQG ?
Reply text: 1 nM
